# TEST_NAME: in vitro
# CONDITION_DESCRIPTION: human, hela cells, % viability
METRIC: viability at 28.5 h, 10 µM (%)
# value in %; strip the unit string

Q. Look at this compound and give its reported viability at 28.5 h, 10 µM. CCN(CC)C(=O)CN1CCCN(c2nccc(OCCN3CCOCC3)n2)CC1 [CBK084094]
A. 99.5

Q. Look at this compound and give its reported viability at 28.5 h, 10 µM. O=C(c1cccc(S(=O)(=O)Nc2ccc(Br)cc2)c1)N1CCCC1 [CBK296709]
A. 67.4

Q. Look at this compound and give its reported viability at 28.5 h, 10 µM. Cc1ccc(-n2c(SCC(=O)c3ccc4c(c3)OCO4)nnc2-c2ccncc2)cc1 [CBK266132]
A. 104

Q. Look at this compound and give its reported viability at 28.5 h, 10 µM. O=C(c1ccccc1-n1cccc1)N1CCCC1 [CBK149608]
A. 81.6

Q. Look at this compound and give its reported viability at 28.5 h, 10 µM. O=[N+]([O-])c1ccc(O)c(/C=N/C(CO)(CO)CO)c1 [CBK261835]
A. 89.3

Q. Look at this compound and give its reported viability at 28.5 h, 10 µM. O=c1c2c(-c3ccccc3)ccnc2[nH]n1-c1ccccc1 [CBK287858]
A. 97

Q. Look at this compound and give its reported viability at 28.5 h, 10 µM. O=C(CN1CCCC1)Nc1sc2c(c1C(=O)Nc1ccccc1)CCCC2 [CBK268800]
A. 103

Q. Look at this compound and give its reported viability at 28.5 h, 10 µM. O=S(=O)(c1ccc(F)cc1)N1CCCC1c1cccc(Cc2cccc(F)c2)n1 (stereo not drawn) [CBK286209]
A. 93.9

Q. Look at this compound and give its reported viability at 28.5 h, 10 µM. COc1ccc(C(=O)N2CCC3(CCN(C(=O)c4ccc5[nH]c(=O)[nH]c5c4)C3)C2)cc1OC (stereo not drawn) [CBK131793]
A. 100

----------
# TEST_NAME: in vitro
# Parameters: Viability of infected HeLa host cells, resazurin conversion, bulk resorufin fluorescence relative to DMSO
# CONDITION_DESCRIPTION: human, hela cells; bulk resorufin, mean of 3
METRIC: viability at 28.5 h, 10 µM (%)
# value in %; strip the unit string

Some entries whose results are on file:
CNC(=S)N1CCN(c2nsc3ccccc23)CC1 ... 102
Cn1cc(C(c2ccc(OCC(=O)O)cc2)c2cn(C)c3ccccc23)c2ccccc21 [c48e] ... 97.6
COc1c(Br)cc2c(cc(C)n2-c2ccccc2)c1OCC(O)CNC(C)C (stereo not shown) ... 97
COc1cccc(CNC(C(=O)O)c2ccc3c(c2)OCO3)c1 (stereo not shown) [c40e] ... 99.7

Q. Look at this compound and give its reported viability at 28.5 h, 10 µM. O=C(CC1SC(Nc2ccc(O)cc2)=NC1=O)c1ccccc1 (stereo not shown) [c13e]
A. 85.6

Q. Look at this compound and give its reported viability at 28.5 h, 10 µM. CCC(c1ccc(F)cc1)N(C)C(=O)Cn1cc(C(=O)NC2CCCCC2)ccc1=O (stereo not shown) [c44e]
A. 83.2

Q. Look at this compound and give its reported viability at 28.5 h, 10 µM. CCOc1ccsc1C(=O)NC1Cc2ccccc2C1 [c16e]
A. 84.3

Q. Look at this compound and give its reported viability at 28.5 h, 10 µM. FC(F)(F)CCN1CCC2(CC1)NCCc1c2[nH]c2ccc(Cl)cc12 [c34e]
A. 93.9

Q. Look at this compound and give its reported viability at 28.5 h, 10 µM. CCCCc1ccc(NC(=N)Nc2nc(C)cc(C)n2)cc1 [c33e]
A. 101

Q. Look at this compound and give its reported viability at 28.5 h, 10 µM. Oc1c(CN2CCN(c3ccc(F)cc3)CC2)cc(Br)c2cccnc12 [c43e]
A. 84.3
